The following compounds are shown together with reported T/C values.
# System: B6C3F1 mice, intracerebral ependymoblastoma, median survival T/C
# assay_method_text: NCI In Vivo Anticancer Drug Screen. Data for tumor model Ependymoblastoma (intracerebral) in B6C3F1 mice
# condition_label: endpoint: median survival time; dose: 64.0 mg/kg/injection; schedule: Q01DX005 (ip); vehicle: saline; higher = longer survival
Toxic doses and inconclusive results are not listed.

Use the examples below as a reference point.
{"columns": ["compound", "T/C"],
 "data": [
  ["C[C@@H](CN1CC(=O)NC(=O)C1)N1CC(=O)NC(=O)C1", "123 % of control"],
  ["O=[N+]([O-])O.[Ga]", "100 % of control"]
]}

For the compound shown here, COc1ccc(C[C@H](N)C(=O)NC2C(CO)OC(n3cnc4c(N(C)C)ncnc43)C2O)cc1 (some centres undefined) , give the reported T/C.
94 % of control

# T/C lookup, item COC1C(O)C(C)OC(OC2C(Oc3cccc4c(O)c5c(=O)oc6ccc(C)c7c(=O)oc(c34)c5c67)OC(C)C(O)C2O)C1O (centres undefined)
103 % of control
